Provenance of the data: patent US20240182593A1

- measurement_target: T1, human OX40 expressed on cells (human, UniProt P43489 29-277)
- T1 construct: whole, on cells
- T1 sequence (looked up): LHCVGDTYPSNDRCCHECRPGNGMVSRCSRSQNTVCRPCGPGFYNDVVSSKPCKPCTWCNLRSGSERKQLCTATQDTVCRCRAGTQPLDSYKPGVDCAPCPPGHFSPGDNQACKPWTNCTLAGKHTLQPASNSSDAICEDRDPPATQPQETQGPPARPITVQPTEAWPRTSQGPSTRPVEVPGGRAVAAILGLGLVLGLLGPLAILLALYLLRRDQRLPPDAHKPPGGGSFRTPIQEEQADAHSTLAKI
- assay_info: flow cytometry on activated human CD4+ T cells, fitted MFI curve
# Bottom values compiled below
Give the value as a plain number.

Completed entries (count: 4):
Query Bottom for O32 (antibody, V domains shown) VH: EVQLLESGGGLVQPGGSLRLSCAASGFTFSSYSMSWVRQAPGKGLEWVSVISSGGGSTYYADSVKGRFTISRDNSKNTLYLQMNSLRAEDTAVYYCARHWRYFDYWGQGTLVTVSS VL: QSVLTQPPSASGTPGQRVTISCSGSSSNIGNNYVSWYQQLPGTAPKLLIYADSKRPSGVPDRFSGSKSGTSASLAISGLRSEDEADYYCGAWDSSLSGYVFGGGTKLTVLG
7.69

Query Bottom for O410 (antibody, human IgG1, lambda, V domains shown) VH: EVQLLESGGGLVQPGGSLRLSCAASGFTFSDYYMSWVRQAPGKGLEWVSGIYSDGSRKYYADSVKGRFTISRDNSKNTLYLQMNSLRAEDTAVYYCARHWSRFDYWGQGTLVTVSS VL: QSVLTQPPSASGTPGQRVTISCSGSSSNIGSNYVTWYQQLPRTAPKLLIYYDSNRPSGVPDRFSGSKSGTSASLAISGLRSEDEADYYCGAWDDSLSGYVFGGGTKLTVLG
1.04

Query Bottom for O15 (antibody, V domains shown) VH: EVQLLESGGGLVQPGGSLRLSCAASGFTFSSYSMSWVRQAPGKGLEWVSMISSGGGSTYYADSVKGRFTISRDNSKNTLYLQMNSLRAEDTAVYYCARHWRYFDYWGQGTLVTVSS VL: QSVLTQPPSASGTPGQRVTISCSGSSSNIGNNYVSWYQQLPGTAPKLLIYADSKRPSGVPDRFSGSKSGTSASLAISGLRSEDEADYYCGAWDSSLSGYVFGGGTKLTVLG
7.36

Query Bottom for O212 (antibody, V domains shown, also called O212 antibody) VH: EVQLLESGGGLVQPGGSLRLSCAASGFTFSDYAMSWVRQAPGKGLEWVSWIYYDSGSKYYADSVKGRFTISRDNSKNTLYLQMNSLRAEDTAVYYCAKGPGPNGQLAFDYWGQGTLVTVSS VL: QSVLTQPPSASGTPGQRVTISCTGSSSNIGSNSVSWYQQLPGTAPKLLIYANSHRPSGVPDRFSGSKSGTSASLAISGLRSEDEADYYCGAWDYSLSGYVFGGGTKLTVLG
5.53

More entries:
Query Bottom for O34 (antibody, V domains shown) VH: EVQLLESGGGLVQPGGSLRLSCAASGFTFSDYYMSWVRQAPGKGLEWVSGISSSGGNKYYADSVKGRFTISRDNSKNTLYLQMNSLRAEDTAVYYCARHWKRFDYWGQGTLVTVSS VL: QSVLTQPPSASGTPGQRVTISCTGPSSNIGNNDVSWYQQLPGTAPKLLIYANSNRPSGVSDRFSGSKSGTSASLAISGLRSEDEADYYCGTWDYSLSGYVLGGGTKLTVLG
5.77

Query Bottom for O35 (antibody, V domains shown) VH: EVQLLESGGGLVQPGGSLRLSCAASGFTFSDYSMSWVRQAPGKGLEWVSAISSDGGSTYYADSVKGRFTISRDNSKNTLYLQMNSLRAEDTAVYYCARRWQTFDYWGQGTLVTVSS VL: QSVLTQPPSASGTPGQRVTISCTGSSSNIGSNAVSWYQQLPGTAPKLLIYHDSHPPSGVPDRFSGSKSGTSASLAISGLRSEDEADYYCGAWDSSLSGYVFGGGTKLTVLG
-0.361
